# Test system: B16F10.9 cells (MSR1 negative)
# protocol_text: Flow cytometry binding, MSR1 negative cells
# Format: cell-based, mouse
# measurement_setup: 10 μg/mL antibody
# Method: Relative cell surface binding of the anti-MSR1 antibodies to mouse MSR1 expressing cells was determined by flow cytometry using MSR1 positive RAW264.7 cells (ATCC, Catalog #TIB-71) and MSR1 negative B16F10.9 cells (Lin et al. 1998. PNAS 95:8829-8834). […] The signal to noise (S/N) was determined by calculating the ratio of the anti-MSR1 antibodies or the control antibodies MFI to the unstained sample MFI (Table 11).
metric_name: B16F10.9 MFI
Respond with the number and no other words.

The recorded B16F10.9 MFI for H1H27739P-N297Q: anti-MSR1 antibody "made with an N297Q single point mutation in human Fcγ portion" (antibody, V domains shown) VH: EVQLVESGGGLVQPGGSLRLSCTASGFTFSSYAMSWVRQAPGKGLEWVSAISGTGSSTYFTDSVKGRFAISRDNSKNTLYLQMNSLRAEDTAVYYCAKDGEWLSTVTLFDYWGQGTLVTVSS VL: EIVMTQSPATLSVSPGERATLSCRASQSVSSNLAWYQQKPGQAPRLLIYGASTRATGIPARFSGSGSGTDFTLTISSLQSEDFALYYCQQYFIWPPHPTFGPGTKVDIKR is 3580

Data origin, for the record: patent US12497460B2
